Entry source: paper PMC4279163

- measurementTarget: human 20S proteasome, trypsin-like activity (Homo sapiens, UniProt Q99436)
- protocolSummary: 20S proteasome assay, trypsin-like activity (Bz-VGR-AMC)
- measurementParameters: activator PA28; Bz-VGR-AMC 20 μM; read-out: IC50, trypsin-like activity of PA28-activated 20S proteasome
pIC50: −log10 of the molar value.

- compound: "C=CC(=O)N1C/C(=C\\c2ccc([N+](=O)[O-])cc2)C(=O)/C(=C/c2ccc([N+](=O)[O-])cc2)C1 [b-AP15]"
  pIC50: 4.39
